molecular target: Homeodomain-interacting protein kinase 3 (Homo sapiens); settings: at 1 µM
endpoint.name: residual activity (%)
Answer format: numeric, % implied, no suffix.

// below: answered compounds
O=c1cc(-c2cccc3c2Sc2ccccc2S3)oc(N2CCOCC2)c1 ... 96
O=C1NC(=O)/C(=C\c2ccc3nccnc3c2)S1 ... 53
COc1ccc(CNc2nc(N(CCO)CCO)nc3c2ncn3C(C)C)cc1 ... 105

Inquiry: # input compound: `Oc1n[nH]c2nnc(-c3c(-c4ccccc4)nn4ccccc34)cc12` ; wanted: its residual activity
Reply text: 98

* * *

Measured residual activity of individual entries
target: Ribosomal protein S6 kinase alpha-4 (Homo sapiens); conditions: at 1 µM
Answer format: numeric, % implied, no suffix.

Inquiry: # input compound: `O=C(Nc1cccc(Nc2cc(Nc3cccc(C(F)(F)F)c3)ncn2)c1)C1CC1` ; wanted: its residual activity
Reply text: 96

Inquiry: # input compound: `CC[n+]1c(/C=C/N(C)c2ccccc2)n(-c2ccccc2)c2ccc(-c3nc4ccccc4s3)cc21` ; wanted: its residual activity
Reply text: 108

Inquiry: # input compound: `Oc1c2ccccc2c2c3c(cccc13)N=N2` ; wanted: its residual activity
Reply text: 76

Inquiry: # input compound: `CC(C)n1cnc2c(NCc3ccccc3)nc(NCCCO)nc21` ; wanted: its residual activity
Reply text: 102

Inquiry: # input compound: `Oc1ccc(-c2nc(-c3ccc(F)cc3)c(-c3ccncc3)[nH]2)cc1` ; wanted: its residual activity
Reply text: 77
